Molecular target: cynomolgus LIV-1 (cynomolgus, UniProt A0A2K5WH46 30-741)
Sequence (A0A2K5WH46 entry or part of it): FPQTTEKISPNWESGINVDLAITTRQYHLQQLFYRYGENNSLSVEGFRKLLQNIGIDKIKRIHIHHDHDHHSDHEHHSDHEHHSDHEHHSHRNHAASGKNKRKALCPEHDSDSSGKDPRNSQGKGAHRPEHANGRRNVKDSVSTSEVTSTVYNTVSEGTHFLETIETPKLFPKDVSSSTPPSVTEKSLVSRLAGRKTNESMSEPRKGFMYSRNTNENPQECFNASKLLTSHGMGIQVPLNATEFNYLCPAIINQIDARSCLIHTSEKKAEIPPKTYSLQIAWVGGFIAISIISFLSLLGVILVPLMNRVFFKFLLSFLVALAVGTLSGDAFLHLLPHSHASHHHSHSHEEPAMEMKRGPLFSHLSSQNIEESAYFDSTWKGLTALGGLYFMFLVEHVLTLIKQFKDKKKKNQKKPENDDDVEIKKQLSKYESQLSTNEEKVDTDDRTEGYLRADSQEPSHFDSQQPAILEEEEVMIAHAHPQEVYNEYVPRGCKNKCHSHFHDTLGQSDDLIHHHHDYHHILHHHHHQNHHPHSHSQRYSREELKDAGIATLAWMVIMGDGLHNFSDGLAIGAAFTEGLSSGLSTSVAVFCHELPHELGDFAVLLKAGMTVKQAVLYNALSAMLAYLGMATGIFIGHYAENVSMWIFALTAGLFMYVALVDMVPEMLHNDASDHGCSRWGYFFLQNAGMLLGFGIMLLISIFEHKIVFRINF
Test: FACS, HEK293/Cyno_LIV-1 cells
assay.readout: pEC50
Scale: negative log10 of molar concentration, which is what pEC50 denotes.

Illustrative cases are given below, each with its answer.
- binder: "5D6B10.Z12 (antibody, V domains shown) VH: QVQLQESGPGLVKPSGTLSLTCAVSGFSLTTYGIHWVRQSPGKGLEWLGVIWTGGTTDYNAAFISRLTISKDKSKNQVSLKLSSVTAADTAVYYCARGPSSYWGQGTLVTVSS VL: DIVMTQSPATLSVSPGERVTVSCKASQNVDTNVVWYQQKPGQSPRALIHSASYRYSGVPDRFSGSGSGTDFTLTISSVQSEDFAVYFCQQYNNYPWTFGGGTKLEIK"
  pEC50: 9.34
- binder: "5D6B10.Z13 (antibody, V domains shown) VH: QVQLQQSGPGLVKPSGTLSLTCTVSGFSLTTYGIHWVRQSPGKGLEWLGVIWTGGTTDYNAAFISRLTISKDKSKNQVFFKMSSLTAADTAVYYCARGPSSYWGQGTLVTVSS VL: EIVMTQSPATLSVSPGERATLSCKASQNVDTNVVWYQQKPGQSPRALIYSASYRYSGVPARFSGSGSGTEFTLTISSLQSEDFAVYFCQQYNNYPWTFGQGTKVEIK"
  pEC50: 9.30
- binder: "5D6B10.Z4 (antibody, V domains shown) VH: QVQLVESGGGVVQPGRSLRLSCTVSGFSLTTYGIHWVRQSPGKGLEWLGVIWTGGTTDYNAAFISRLTISKDNSKSTLYFQMNSLRAEDTAVYYCARGPSSYWGQGTLVTVSS VL: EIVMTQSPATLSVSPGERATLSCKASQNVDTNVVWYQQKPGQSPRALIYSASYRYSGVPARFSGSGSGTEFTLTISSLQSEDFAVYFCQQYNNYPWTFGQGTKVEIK"
  pEC50: 9.70

**Q:** Would you mind telling me what pEC50 value was observed for 5D6B10.Z1 (antibody, V domains shown) VH: QVQLVESGGGVVQPGRSLRLSCAVSGFSLTTYGIHWVRQAPGKGLEWLAVIWTGGTTDYNAAFISRFTISKDNSKSTLYLQMNSLRAEDTAVYYCARGPSSYWGQGTLVTVSS VL: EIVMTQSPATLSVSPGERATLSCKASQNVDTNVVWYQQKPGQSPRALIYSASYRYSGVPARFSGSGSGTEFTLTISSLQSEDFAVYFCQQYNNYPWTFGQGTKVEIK ?
**A:** 9.89

**Q:** Report pEC50 for 124H4D11.p2.z3 (antibody, V domains shown) VH: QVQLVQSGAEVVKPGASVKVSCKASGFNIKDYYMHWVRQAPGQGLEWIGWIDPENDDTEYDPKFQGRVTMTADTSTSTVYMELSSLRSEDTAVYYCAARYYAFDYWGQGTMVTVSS VL: DVLMTQSPSSLSVSVGDRATISCRSSQSIVHSNANTYLEWYLQKPGKSPKLLIYKVSNRFSGVPDRFSGSGSGTEFTLTISSVQPEDFGVYYCFQGSQVPPTFGGGTRLEIK please.
**A:** 10.40
